Hey, just so you know, these numbers are from patent US20250382363A1.

Examples of binders with documented n-fold to wt follow.
ASSAY SYSTEM: T1, human a-PD-L1 Fc (Sino Biological, 10084-H02H, LC11NO2402) (human, UniProt Q9NZQ7 19-239)
T1 construct: Bought Fc fusion immobilised on the SPR chip; Printed as 'a-PD-L1 Fc' but used as the antigen (ligand) for the anti-PD-L1 scFvs; also called Human PD-L1; not shown: Fc part
T1 sequence (Q9NZQ7 19-239 limits assumed): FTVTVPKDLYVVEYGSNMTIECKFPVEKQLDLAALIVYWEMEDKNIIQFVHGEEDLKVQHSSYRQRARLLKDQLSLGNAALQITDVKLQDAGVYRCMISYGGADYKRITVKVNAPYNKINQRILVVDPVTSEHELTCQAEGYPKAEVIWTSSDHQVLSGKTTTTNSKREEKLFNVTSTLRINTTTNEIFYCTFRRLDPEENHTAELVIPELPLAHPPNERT
PROCEDURE SUMMARY: SPR, PD-L1 Fc immobilised, scFv analyte, 1:1 fit
Method: The mutation variants were then injected at concentrations of 10 nM, 2 nM and 0.4 nM over the ligand-immobilized and reference spots. The wild type variants were used as a control, while an empty spot was used as reference. After each cycle with analyte, the surface was regenerated with a 3M MgCl₂ solution, thereby allowing the next analyte cycle to have only free ligand available. […]
PROPERTY MEASURED: n-fold to wt (fold)

- BINDER: "PRO3314 (scFv 37-20-B03-sc09.1_(T101Q, T146Q)) (scFv, PRO2230 variant; VH substitutions, AHo numbering; also called PRO2230 T101Q-T146Q) scFv: DIQMTQSPASLSASVGDRVTITCQASQSIGTYLAWYQQKPGKPPKLLIYRAFILASGVPSRFSGSGSGTDFTLTISSLQPEDFATYYCQSNFYSDSTTIGPNAFGTGTKVTVLGGGGGSGGGGSGGGGSGGGGSEVQLVESGGGLVQPGGSLRLSCAASGFSFNSDYWIYWVRQAPGKGLEWIASIYGGSSGNTQYASWAQGRFTISRDNSKNTVYLQMNSLRAEDQAVYFCARGYVDYGGATDLWGQGTLVQVSS"
  UNIT: "fold"
  NUMERIC READOUT: 0.6
- BINDER: "PRO3342 (scFv 37-20-B03-sc09.1_(T101K, T146D)) (scFv, PRO2230 variant; VH substitutions, AHo numbering; also called PRO2230 T101K-T146D) scFv: DIQMTQSPASLSASVGDRVTITCQASQSIGTYLAWYQQKPGKPPKLLIYRAFILASGVPSRFSGSGSGTDFTLTISSLQPEDFATYYCQSNFYSDSTTIGPNAFGTGTKVTVLGGGGGSGGGGSGGGGSGGGGSEVQLVESGGGLVQPGGSLRLSCAASGFSFNSDYWIYWVRQAPGKGLEWIASIYGGSSGNTQYASWAQGRFTISRDNSKNTVYLQMNSLRAEDKAVYFCARGYVDYGGATDLWGQGTLVDVSS"
  UNIT: "fold"
  NUMERIC READOUT: 0.8
- BINDER: "PRO3312 (scFv 37-20-B03-sc09.1_(T101R, T146Q)) (scFv, PRO2230 variant; VH substitutions, AHo numbering; also called PRO2230 T101R-T146Q) scFv: DIQMTQSPASLSASVGDRVTITCQASQSIGTYLAWYQQKPGKPPKLLIYRAFILASGVPSRFSGSGSGTDFTLTISSLQPEDFATYYCQSNFYSDSTTIGPNAFGTGTKVTVLGGGGGSGGGGSGGGGSGGGGSEVQLVESGGGLVQPGGSLRLSCAASGFSFNSDYWIYWVRQAPGKGLEWIASIYGGSSGNTQYASWAQGRFTISRDNSKNTVYLQMNSLRAEDRAVYFCARGYVDYGGATDLWGQGTLVQVSS"
  UNIT: "fold"
  NUMERIC READOUT: 0.8
- BINDER: "PRO2914 (scFv 37-20-B03-sc09.1_(T101S, L144A, T146Q)) (scFv, PRO2230 variant; VH substitutions, AHo numbering; also called PRO2230 T101S-L144A-T146Q) scFv: DIQMTQSPASLSASVGDRVTITCQASQSIGTYLAWYQQKPGKPPKLLIYRAFILASGVPSRFSGSGSGTDFTLTISSLQPEDFATYYCQSNFYSDSTTIGPNAFGTGTKVTVLGGGGGSGGGGSGGGGSGGGGSEVQLVESGGGLVQPGGSLRLSCAASGFSFNSDYWIYWVRQAPGKGLEWIASIYGGSSGNTQYASWAQGRFTISRDNSKNTVYLQMNSLRAEDSAVYFCARGYVDYGGATDLWGQGTAVQVSS"
  UNIT: "fold"
  NUMERIC READOUT: 0.5
- BINDER: "PRO2913 (scFv 37-20-B03-sc09.1_(T101S, T146Q)) (scFv, PRO2230 variant; VH substitutions, AHo numbering; also called PRO2230 T101S-T146Q) scFv: DIQMTQSPASLSASVGDRVTITCQASQSIGTYLAWYQQKPGKPPKLLIYRAFILASGVPSRFSGSGSGTDFTLTISSLQPEDFATYYCQSNFYSDSTTIGPNAFGTGTKVTVLGGGGGSGGGGSGGGGSGGGGSEVQLVESGGGLVQPGGSLRLSCAASGFSFNSDYWIYWVRQAPGKGLEWIASIYGGSSGNTQYASWAQGRFTISRDNSKNTVYLQMNSLRAEDSAVYFCARGYVDYGGATDLWGQGTLVQVSS"
  UNIT: "fold"
  NUMERIC READOUT: 1.2
- BINDER: "PRO3313 (scFv 37-20-B03-sc09.1_(T101S, T146R)) (scFv, PRO2230 variant; VH substitutions, AHo numbering; also called PRO2230 T101S-T146R) scFv: DIQMTQSPASLSASVGDRVTITCQASQSIGTYLAWYQQKPGKPPKLLIYRAFILASGVPSRFSGSGSGTDFTLTISSLQPEDFATYYCQSNFYSDSTTIGPNAFGTGTKVTVLGGGGGSGGGGSGGGGSGGGGSEVQLVESGGGLVQPGGSLRLSCAASGFSFNSDYWIYWVRQAPGKGLEWIASIYGGSSGNTQYASWAQGRFTISRDNSKNTVYLQMNSLRAEDSAVYFCARGYVDYGGATDLWGQGTLVRVSS"
  UNIT: "fold"
  NUMERIC READOUT: 0.3
- BINDER: "PRO2984 (scFv 37-20-B03-sc09.1_(L12S, V103T, L144T)) (scFv, VH substitutions, AHo numbering; also called PRO2230-L12S-V103T-L144T) scFv: DIQMTQSPASLSASVGDRVTITCQASQSIGTYLAWYQQKPGKPPKLLIYRAFILASGVPSRFSGSGSGTDFTLTISSLQPEDFATYYCQSNFYSDSTTIGPNAFGTGTKVTVLGGGGGSGGGGSGGGGSGGGGSEVQLVESGGGSVQPGGSLRLSCAASGFSFNSDYWIYWVRQAPGKGLEWIASIYGGSSGNTQYASWAQGRFTISRDNSKNTVYLQMNSLRAEDTATYFCARGYVDYGGATDLWGQGTTVTVSS"
  UNIT: "fold"
  NUMERIC READOUT: 0.7
- BINDER: "PRO2935 (scFv 37-20-B03-sc09.1_(L144A, S148N)) (scFv, PRO2230 variant; VH substitutions, AHo numbering; also called PRO2230 L144A-S148N) scFv: DIQMTQSPASLSASVGDRVTITCQASQSIGTYLAWYQQKPGKPPKLLIYRAFILASGVPSRFSGSGSGTDFTLTISSLQPEDFATYYCQSNFYSDSTTIGPNAFGTGTKVTVLGGGGGSGGGGSGGGGSGGGGSEVQLVESGGGLVQPGGSLRLSCAASGFSFNSDYWIYWVRQAPGKGLEWIASIYGGSSGNTQYASWAQGRFTISRDNSKNTVYLQMNSLRAEDTAVYFCARGYVDYGGATDLWGQGTAVTVNS"
  UNIT: "fold"
  NUMERIC READOUT: 1.9
- BINDER: "PRO3317 (scFv 37-20-B03-sc09.1_(T101Q)) (scFv, PRO2230 variant; VH substitution, AHo numbering; also called PRO2230 T101Q) scFv: DIQMTQSPASLSASVGDRVTITCQASQSIGTYLAWYQQKPGKPPKLLIYRAFILASGVPSRFSGSGSGTDFTLTISSLQPEDFATYYCQSNFYSDSTTIGPNAFGTGTKVTVLGGGGGSGGGGSGGGGSGGGGSEVQLVESGGGLVQPGGSLRLSCAASGFSFNSDYWIYWVRQAPGKGLEWIASIYGGSSGNTQYASWAQGRFTISRDNSKNTVYLQMNSLRAEDQAVYFCARGYVDYGGATDLWGQGTLVTVSS"
  UNIT: "fold"
  NUMERIC READOUT: 0.9
